Reported melting point is given for each of the following molecules.

>  <Smi>
COc1cc(OC)c(S(=O)(=O)Cl)cc1S(=O)(=O)Cl

>  <melting point>
139 to 141 °C

$$$$
>  <Smi>
O=C(O)c1ccccc1Cc1nc2ccccc2s1

>  <melting point>
182 to 184 °C

$$$$
>  <Smi>
CC(C)(C)OC(=O)N(CC(=O)O)C1CC1

>  <melting point>
90 to 92 °C

$$$$
>  <Smi>
Cc1cc(C#N)ccc1NC1CC1

>  <melting point>
101 to 103 °C

$$$$

Please turn your attention to the following entry.
Entry under review: O=C(NCCO)c1ccncc1 . Reported melting point?
136 to 138 °C
